Just for reference, the supplement of paper PMC11246515 is where these values come from.

test: total protein half-life in vivo (active degradation + dilution); higher = more stable protein
testConditions: wild type E. coli NCM3722; growth: N-lim chemostat; doubling time 6 h

chainSequence | readoutUnit | total protein half-life in vivo
MNSFNEGVVSPLLSFWRRSLMLAGALLLTACSHNSSLPPFTASGFAEDQGAVRIWRKDSGDNVHLLAVFSPWRSGDTTTREYRWQGDNLTLININVYSKPPVNIRARFDDRGDLSFMQRESDGEKQQLSNDQIDLYRYRADQIRQISDALRQGRVVLRQGRWHAMEQTVTTCEGQTIKPDLDSQAIAHIERRQSRSSVDVSVAWLEAPEGSQLLLVANSDFCRWQPNEKTF | h | 6.3
MSSEKLYSPLKVGAITAANRIFMAPLTRLRSIEPGDIPTPLMAEYYRQRASAGLIISEATQISAQAKGYAGAPGIHSPEQIAAWKKITAGVHAENGHMAVQLWHTGRISHASLQPGGQAPVAPSALSAGTRTSLRDENGQAIRVETSMPRALELEEIPGIVNDFRQAIANAREAGFDLVELHSAHGYLLHQFLSPSSNHRTDQYGGSVENRARLVLEVVDAGIEEWGADRIGIRVSPIGTFQNTDNGPNEEADALYLIEQLGKRGIAYLHMSEPDWAGGEPYTDAFREKVRARFHGPIIGAGAYTVEKAETLIGKGLIDAVAFGRDWIANPDLVARLQRKAELNPQRAESFYGGGAEGYTDYPTL | h | 1.66
